Recorded values, source the supplement of paper PMC12042874.

Assay: amyloid nucleation score (Sup35N fusion, yeast selection) (log enrichment); library NNK1; higher = more nucleation; inactive = no reads after selection;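 also: zero at mode of non-aggregating sequences after 7 days selection at 30°C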

| substance | amyloid nucleation score |
| --- | --- |
| SGNGRRWSVLTDLAMLLLWL | -0.316 |
| SCHIKK | 0.12 |
| LFATYLAFKFY | -0.356 |
| ITETSSSETMLLVVRTWEVW | 0.332 |
| NICWFGVSRLQKMEGLWTGA | 0.515 |
| RPWAWPRCRSCAST | 0.689 |
| VEMNFSFVGR | 2.62 |
| RYLLKLFRIVGFGVVFMMSK | -0.511 |
| TGATFMMRGVNLCEGSKSGN | -0.198 |
| RSSLVLTFELFRFGMYHQEM | 1.28 |
| MTRLINYCNGYNAKVVNWCF | 0.7 |
| RTIHAIERDDCLRGNSGKNN | 1.12 |
| MVWVKGEDCFVDQACLRGAV | 1.03 |
| TGWQCYSRANVVD | -0.98 |
| SYIQLMSMMIFAHMTANRRN | 1.9 |
| FQSECSCIPKAWSVFMGTAG | -0.476 |
| FKTDRGTRHFDFYYCV | 0.395 |
| NLYFIHVSRMIWSNSV | 5.02 |
| DSGSHRGW | 0.289 |
| VMKLDGDPKQVFPGYSLMEG | -0.092 |
| YTCSVGDVMINDSETSSKAG | 0.053 |
| YSCFDRAPRFETSVESCDMS | 0.093 |
| TKSMEPSGR | 0.046 |
| SCYVLVMYCYDMSFCDTLCE | 0.024 |
| SCLMLGTGGETLRSRPPRKV | -1.45 |
| NYAAPVSCRGLADEGRSRTD | -0.4 |
| RNLTDQL | 2.99 |
| FCCMGDMYFCSDFQSVSLFL | 8.45 |
| LSVRDVLYGHVRWVGWGGVK | 0.886 |
| EEPLLSDMCITVGVRFLNKS | 3.36 |
| RFFCDCFFGSRGE | 1.88 |
| FNRSLLLALVSAFENGLLSW | 0.51 |
| QSDKCCLMYGECVHVVC | 2.83 |
| LITWCIVVAWCIIVTREA | 2.84 |
| ICCGCRYFFSTTSV | 6.7 |
| MFFVSI | 0.41 |
| SSEIDYVFMAPREV | -0.06 |
| CGDKNILTRIWLERVSVLAS | 0.056 |
| AVIAMYRVNAPSC | 1.15 |
| AWMSRIVNNPGSNTFSRQWL | -0.284 |
| GFSWSNITKCGWACGSDGMK | 0.676 |
| GDSLTLTLFRIIYIGFRTDY | -1.03 |
| FSTMAYTWVLYTSWACAGAS | 0.075 |
| RWEFGLRHGKSVKWSIPSLY | -0.085 |
| VYTWPTICNCQRL | 0.128 |
| LNRFVPASRWDHLHL | -0.353 |
| VTLSTAIVTNEFMSDISTGY | -0.712 |
| ESFTPSRSTNVRI | -1.24 |
| IMYWITGTIMCY | 0.037 |
| QNFSRTGGIGIHKIFVGMGE | -1.13 |
| SNCFGSSIGNYFRYMFVAYW | 1.86 |
| FIGMTDPMSIDILLLSS | 0.389 |
| RTGVIWYY | -0.677 |
| LRYVKSHSTMAFKLGATPGT | 0.505 |
| ERIIRKAC | 0.338 |
| MHCLGLAWALELVSLLC | -0.374 |
| SHVFAIRT | 0.574 |
| GTSRPVDWGLRRLS | 1.37 |
| RICPKNCMSISVI | 0.305 |
| LNHNIFVFFLQIIQTHDIWF | 4.87 |
| TRLRTYKCLQMGDYHVSSFK | 0.672 |
| LYNVSSLGSANKSFLGRSS | 1.39 |
| VIASSATGYIHR | 2.46 |
